B1: Histone H1t, residues 44 to 112; numbered along this chain, P22492 (parent)
chain: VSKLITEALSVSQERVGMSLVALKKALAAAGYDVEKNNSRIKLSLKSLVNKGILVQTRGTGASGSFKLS

variants of: B1; assay: abundance fitness (aPCA) (normalised: wild type 0, dead -1); higher = more abundant; growth selection in yeast, the domain comes from the species named; settings: Homo sapiens
Returns one of Satisfied or Not satisfied; Satisfied when abundance fitness is >= -0.2.

Some solved cases for reference:
VSKLITEALSVSQERVGMSLVALKKALAAAGYVVEKNNSRIKLSLKSLVNKGILVQTRGTGASGSFKLS [D33V] : Satisfied
VSKLITEALSVSQERVGMSLVALKKALAAAGYDVEKNNSRIKLSLKSKVNKGILVQTRGTGASGSFKLS [L48K] : Not satisfied
VSKLITEALSVSQERVGMSLVALKKALAKAGYDVEKNNSRIKLSLKSLVNKGILVQTRGTGASGSFKLS [A29K] : Satisfied

Input: Quick check, abundance fitness >= -0.2? VSKLITEALSVSQERVGMSLVALKPALAAAGYDVEKNNSRIKLSLKSLVNKGILVQTRGTGASGSFKLS [K25P]
Output: Not satisfied

Input: Does abundance fitness meet or surpass -0.2 for VSKLITEALSVSQERVGMSLVALKKALAAAGYDVEKNNSRIKLSLKSLVNKGILVQTRGTGNSGSFKLS [A62N] ?
Output: Satisfied

Input: Is abundance fitness at least -0.2? Consider VSKLITEALSVSQERVGMSLVALKKALAAAGYYVEKNNSRIKLSLKSLVNKGILVQTRGTGASGSFKLS [D33Y]
Output: Satisfied

Input: In plain terms: is recorded abundance fitness at least -0.2 for VSKLITEALSVSQERVGMSLVALKKALATAGYDVEKNNSRIKLSLKSLVNKGILVQTRGTGASGSFKLS [A29T] ?
Output: Satisfied
